Cited source: patent US8003660B2

# TARGET_SYSTEM: M1 muscarinic receptor (Homo sapiens, UniProt P11229)
# Construct: expressed in transfected cells; host or cells: CHO (M1-CHO)
# Sequence (P11229 whole entry): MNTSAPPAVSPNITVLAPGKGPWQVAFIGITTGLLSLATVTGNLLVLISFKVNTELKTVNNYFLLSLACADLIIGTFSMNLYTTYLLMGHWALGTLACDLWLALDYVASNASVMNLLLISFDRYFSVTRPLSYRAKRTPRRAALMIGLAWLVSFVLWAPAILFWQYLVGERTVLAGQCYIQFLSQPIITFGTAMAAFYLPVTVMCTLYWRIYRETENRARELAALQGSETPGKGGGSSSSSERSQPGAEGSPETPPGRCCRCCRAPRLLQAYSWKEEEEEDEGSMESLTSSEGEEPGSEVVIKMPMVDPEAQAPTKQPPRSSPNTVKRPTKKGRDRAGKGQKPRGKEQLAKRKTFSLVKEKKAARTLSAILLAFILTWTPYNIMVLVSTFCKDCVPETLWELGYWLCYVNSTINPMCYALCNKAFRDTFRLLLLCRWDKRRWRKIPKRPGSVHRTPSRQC
# MEASUREMENT_DESCRIPTION: Functional mobilization of intracellular calcium (FLIPR) in CHO cells expressing M1
# Assay type: cell-based
# MEASUREMENT_SETUP: CHO; 100% efficacy = maximum response obtained with the Carbachol control
ASSAY_READOUT: Emax

Study these solved cases before continuing.
CCN(C(=O)Cc1ccccn1)[C@H]1CCC2(CCN(CCC(C)(C)C)CC2)c2ccccc21 [compound 198] | 25 to 100%
CC(C)(C)OC(=O)N1CCC2(CC1)C[C@H](NC(=O)C1CCCC1)c1ccccc12 [compound 295] | < 25%
CCCC(=O)N[C@H]1CC2(CCN(CCC(C)C)CC2)c2ccccc21 [compound 227] | < 25%
CCN(C(=O)Cc1ccncc1)[C@H]1CCC2(CCN(CCC(C)(C)C)CC2)c2ccccc21 [compound 223] | 25 to 100%
COCCC(=O)N[C@H]1CCC2(CCN(CCC(C)(C)C)CC2)c2cc(F)ccc21 [compound 215] | 25 to 100%
CC(C)CCN1CCC2(CC1)C[C@H](NC(=O)c1ccoc1)c1ccccc12 [compound 267] | < 25%
CC(C)(C)CCN1CCC2(CC[C@H](N3CCCCC3=O)c3ccc(F)cc32)CC1 [compound 222] | 25 to 100%
CCOCC(=O)N[C@H]1CCC2(CCN(CCC(C)(C)C)CC2)c2cc(F)ccc21 [compound 196] | 25 to 100%
CC(C)(C)CCN1CCC2(CC[C@H](NC(=O)CCCN3CCCC3=O)c3ccccc32)CC1 [compound 197] | 25 to 100%
CCCC(=O)N[C@H]1CC2(CCN(CCC(C)(C)C)CC2)c2ccccc21 [compound 264] | < 25%

Problem: Supply Emax measured with M1 muscarinic receptor (Homo sapiens, UniProt P11229) for CC(C)(C)CCN1CCC2(CC[C@@H](NC(=O)C3CCOCC3)c3ccccc32)CC1 [compound 188] .
Solution: < 25%

Problem: Supply Emax measured with M1 muscarinic receptor (Homo sapiens, UniProt P11229) for CCC(=O)N[C@H]1CC2(CCN(CCC(C)(C)C)CC2)c2ccccc21 [compound 230] .
Solution: 25 to 100%

Problem: Supply Emax measured with M1 muscarinic receptor (Homo sapiens, UniProt P11229) for CC(C)(C)OC(=O)N1CCC2(CC1)C[C@H](NC(=O)c1ccccc1)c1ccccc12 [compound 255] .
Solution: < 25%

###

Entries and their EC50
# TARGET_SYSTEM: M2 muscarinic receptor (Homo sapiens)
# MEASUREMENT_DESCRIPTION: Functional mobilization of intracellular calcium (FLIPR) in CHO cells expressing M2
# MEASUREMENT_SETUP: CHO cells expressing M2, FLIPR calcium

CCOCC(=O)N[C@@H]1CCC2(CCN(CCC(C)(C)C)CC2)c2cc(F)ccc21 | < 2000 nM
CCOCCC(=O)N[C@@H]1CCC2(CCN(CCC(C)(C)C)CC2)c2ccccc21 | < 2000 nM

Now, please, on to the next compound.
Problem: Give EC50 for the following compound: CC(C)C[C@@H](C(=O)N[C@@H]1CCC2(CCN(CCC(C)(C)C)CC2)c2ccccc21)N1CCCC1=O
Solution: > 5000 nM

###

# TARGET_SYSTEM: M1 muscarinic receptor (Homo sapiens)
# MEASUREMENT_DESCRIPTION: Functional mobilization of intracellular calcium (FLIPR) in CHO cells expressing M1
# MEASUREMENT_SETUP: CHO cells expressing M1, FLIPR calcium
# Procedure: Functional Mobilization of Intracellular Calcium to Determine Muscarinic Receptor Activity: […] Compounds are prepared at a 2× fold concentration in a 96-well plate (round bottom, Costar Corning cat#3656), by reconstituting the pre-spotted compounds in bath 1 containing 1 mM probenecid. […] In both assay modes, the fluorescence is recorded for 60 sec (excitation wavelength is […] and emission wavelength 540 nm) using the FLIPR 3 instrument. […]
ASSAY_READOUT: EC50

Study these solved cases before continuing.
CC(C)(C)CCN1CCC2(CC[C@@H](NC(=O)C3CC3)c3ccccc32)CC1 [compound 3] | > 5 µM
CC(C)(C)CCN1CCC2(CC[C@H](NC(=O)Cc3cccnc3)c3ccc(F)cc32)CC1 [compound 79] | < 2 µM
Cn1cnc(C(=O)N[C@H]2CCC3(CCN(CCC(C)(C)C)CC3)c3cc(F)ccc32)c1 [compound 165] | < 2 µM
CCC(=O)N1CCCCC1C(=O)N[C@@H]1CCC2(CCN(CCC(C)(C)C)CC2)c2ccccc21 (stereo partly drawn) [compound 5] | 2 to 5 µM
CC(=O)NCCC(=O)N[C@H]1CCC2(CCN(CCC(C)(C)C)CC2)c2cc(F)ccc21 [compound 96] | < 2 µM
CC(C)C[C@@H](C(=O)N[C@H]1CCC2(CCN(CCC(C)(C)C)CC2)c2ccccc21)N1CCCC1=O [compound 23] | 2 to 5 µM

Problem: Give EC50 for the following compound: CC(=O)N[C@@H]1c2ccccc2C2(CCN(CCC(C)(C)C)CC2)CC1(F)F [compound 32]
Solution: < 2 µM

Problem: Give EC50 for the following compound: CC(C)C[C@@H](C(=O)N[C@@H]1CCC2(CCN(CCC(C)(C)C)CC2)c2ccccc21)N1CCCC1=O [compound 182]
Solution: 2 to 5 µM

Problem: Give EC50 for the following compound: CCN(C(=O)C1CCCO1)[C@H]1CCC2(CCN(CCC(C)(C)C)CC2)c2ccccc21 (stereo partly drawn) [compound 39]
Solution: > 5 µM

Problem: Give EC50 for the following compound: CC(C)NC(=O)C1CCC2(CCN(CCC(C)(C)C)CC2)c2ccccc21 (stereo not drawn) [compound 35]
Solution: > 5 µM

Problem: Give EC50 for the following compound: CC(=O)N(C(C)C)[C@H]1CCC2(CCN(CCC(C)(C)C)CC2)c2ccccc21 [compound 154]
Solution: < 2 µM

Problem: Give EC50 for the following compound: CC(C)(C)CCN1CCC2(CC[C@@H](NC(=O)Cc3cccnc3)c3ccccc32)CC1 [compound 134]
Solution: > 5 µM

Problem: Give EC50 for the following compound: CC(C)CCN1CCC2(CC[C@H](N3C(=O)CCC3=O)c3ccccc32)CC1 [compound 142]
Solution: 2 to 5 µM

Problem: Give EC50 for the following compound: CCOCC(=O)N[C@@H]1CCC2(CCN(CCC(C)(C)C)CC2)c2cc(F)ccc21 [compound 63]
Solution: < 2 µM

Problem: Give EC50 for the following compound: CC#CCN(C(C)=O)[C@H]1CCC2(CCN(CCC(C)C)CC2)c2ccccc21 [compound 141]
Solution: < 2 µM

###

# TARGET_SYSTEM: M2 muscarinic receptor (Homo sapiens, UniProt P08172)
# Construct: expressed in transfected cells; host or cells: CHO (M2-CHO)
# Sequence (P08172 1-466): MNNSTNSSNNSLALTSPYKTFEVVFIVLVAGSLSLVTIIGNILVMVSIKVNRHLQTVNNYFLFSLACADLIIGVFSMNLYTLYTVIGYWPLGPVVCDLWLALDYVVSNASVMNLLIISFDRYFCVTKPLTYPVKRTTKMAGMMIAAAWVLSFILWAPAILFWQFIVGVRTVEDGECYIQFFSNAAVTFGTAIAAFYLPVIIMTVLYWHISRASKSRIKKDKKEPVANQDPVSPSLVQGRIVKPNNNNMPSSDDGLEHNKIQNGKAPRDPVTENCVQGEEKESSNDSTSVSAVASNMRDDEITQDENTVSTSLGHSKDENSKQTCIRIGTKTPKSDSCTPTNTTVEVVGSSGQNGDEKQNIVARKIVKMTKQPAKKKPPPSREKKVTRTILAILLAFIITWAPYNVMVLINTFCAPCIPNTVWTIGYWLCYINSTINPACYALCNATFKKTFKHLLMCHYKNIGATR
# MEASUREMENT_DESCRIPTION: Functional mobilization of intracellular calcium (FLIPR) in CHO cells expressing M2
# Assay type: cell-based
# MEASUREMENT_SETUP: CHO; 100% = maximum response obtained with the Carbachol control; read-out: M2 Efficacy
ASSAY_READOUT: Emax

CC(C)CCN1CCC2(CC[C@H](N3CCCC3=O)c3ccccc32)CC1 | < 25%
CC(C)(C)CCN1CCC2(CC[C@@H](NC(=O)CC3CCOCC3)c3ccccc32)CC1 | < 25%
CCN(C(=O)CC(F)(F)F)[C@H]1CCC2(CCN(CCC(C)(C)C)CC2)c2ccccc21 | < 25%
CC#CCN(C(C)=O)[C@H]1CCC2(CCN(CCC(C)(C)C)CC2)c2ccccc21 | 25 to 100%
CC(C)(C)CCN1CCC2(CC[C@H](NC(=O)c3cccnc3)c3ccccc32)CC1 | < 25%

Problem: Give Emax for the following compound: C[C@H](C(=O)N[C@@H]1CCC2(CCN(CCC(C)(C)C)CC2)c2ccccc21)N1CCCCC1=O
Solution: < 25%
